Tested on: 60 different human tumor cell lines
endpoint label: CC50

chem smiles | target under test | result
C[C@]12CCc3nc(Nc4ccc(O)cc4)sc3C1=CC[C@@H]1[C@@H]2CC[C@]2(C)C(=O)CC[C@@H]12 | 60 different human tumor cell lines | > 100 µM

---

Tested on: 60 different human tumor cell lines
protocol summary: cells
experimental setup: NCI-H460
Cut-off 4 µM on GI50: below means satisfied, at or above means not satisfied.

chem smiles | target under test | cat
C[C@]12CC[C@H]3[C@@H](CC=C4c5sc(Nc6ccccc6)nc5CC[C@@]43C)[C@@H]1CC[C@@H]2O | 60 different human tumor cell lines | satisfied
C[C@]12CCc3sc(NCCc4ccccc4)nc3C1=CC[C@@H]1[C@@H]2CC[C@]2(C)C(=O)CC[C@@H]12 | 60 different human tumor cell lines | not satisfied
C[C@]12CC[C@H]3[C@@H](CC=C4c5sc(-c6ccc(O)cc6)nc5CC[C@@]43C)[C@@H]1CC[C@@H]2O | 60 different human tumor cell lines | not satisfied
C[C@]12CCc3sc(Nc4cccc(O)c4)nc3C1=CC[C@@H]1[C@@H]2CC[C@]2(C)C(=O)CC[C@@H]12 | 60 different human tumor cell lines | not satisfied
C[C@]12CCc3sc(Nc4ccc(OC(F)(F)F)cc4)nc3C1=CC[C@@H]1[C@@H]2CC[C@]2(C)C(=O)CC[C@@H]12 | 60 different human tumor cell lines | satisfied
